molecular target: Prolyl endopeptidase (Mus musculus) (UniProt Q9QUR6); assay: competitive ABPP of Abhd10 versus anti-targets – biochemical, fluorescence, gel-based, mouse proteome, selectivity assay for PME-1 inhibitor project, late-stage follow-up (AID 588807); conditions: PREP, anti-target, at 10 µM, hits give high values
Sequence (Q9QUR6 whole entry, looked up): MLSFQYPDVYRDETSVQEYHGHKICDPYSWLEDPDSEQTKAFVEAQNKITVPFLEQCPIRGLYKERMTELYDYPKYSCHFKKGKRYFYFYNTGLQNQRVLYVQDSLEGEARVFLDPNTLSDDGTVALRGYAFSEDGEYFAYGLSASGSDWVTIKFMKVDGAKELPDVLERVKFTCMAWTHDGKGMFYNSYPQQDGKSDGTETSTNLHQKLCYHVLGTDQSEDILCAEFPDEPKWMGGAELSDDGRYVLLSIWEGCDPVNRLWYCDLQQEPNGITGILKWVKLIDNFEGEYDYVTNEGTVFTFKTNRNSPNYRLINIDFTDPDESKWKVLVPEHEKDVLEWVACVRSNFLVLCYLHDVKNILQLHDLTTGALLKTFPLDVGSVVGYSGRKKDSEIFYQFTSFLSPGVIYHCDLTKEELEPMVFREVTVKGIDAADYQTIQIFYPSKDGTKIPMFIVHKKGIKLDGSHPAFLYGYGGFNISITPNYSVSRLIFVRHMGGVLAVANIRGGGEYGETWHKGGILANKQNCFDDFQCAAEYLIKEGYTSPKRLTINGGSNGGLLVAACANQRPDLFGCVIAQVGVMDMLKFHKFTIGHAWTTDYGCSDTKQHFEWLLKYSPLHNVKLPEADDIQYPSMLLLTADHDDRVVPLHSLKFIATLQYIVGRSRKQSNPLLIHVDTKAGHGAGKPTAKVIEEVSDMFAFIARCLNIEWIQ
property name: inhibition (%)

# smiles code, system, inhibition (%)
data = [
    ("C=CCOC(=O)N1C(=O)[C@@](CC)(c2cccc(C)c2)N1C(=O)OC", "Prolyl endopeptidase (Mus musculus) (UniProt Q9QUR6)", 65),
]

(P) C=CCOC(=O)N1C(=O)[C@@](CC)(c2ccccc2)N1C(=O)OCC=C
(Q) CCOC(=O)N1C(=O)[C@@](CC)(c2cccc(C)c2)N1C(=O)OCC
Q: Lab log: flag the item ( P or Q ) with the smaller inhibition figure. Kindly give the label for the entry you pick.
A: P
(P: 70%, Q: 100%)

* * *

target: Palmitoyl-protein thioesterase ABHD10, mitochondrial (Mus musculus); assay: competitive ABPP of Abhd10 versus anti-targets – biochemical, fluorescence, gel-based, mouse proteome, selectivity assay for PME-1 inhibitor project, late-stage follow-up (AID 588807); details: at 10 µM, hits give high values
property name: inhibition (%)

The cases that follow already have their inhibition on record.
# smiles code, numeric value
records = [
    ("C=CCOC(=O)N1C(=O)[C@@](CC)(c2ccccc2)N1C(=O)OC", 90),
    ("CC[C@@]1(c2ccc(C)cc2)C(=O)N(C(=O)OC)N1C(=O)OC", 100),
    ("CC[C@@]1(c2cccc(C)c2)C(=O)N(C(=O)OC(C)C)N1C(=O)OC", 60),
    ("CC[C@@]1(c2cccc(OC)c2)C(=O)N(C(=O)OC)N1C(=O)OC", 90),
    ("CC[C@@]1(c2ccc(Cl)c(Cl)c2)C(=O)N(C(=O)OC)N1C(=O)OC", 90),
    ("CC[C@@]1(c2cccc(C)c2)C(=O)N(C(=O)OC(C)(C)C)N1C(=O)OC(C)(C)C", 70),
    ("CC[C@@]1(c2ccc(Cl)c(Cl)c2)C(=O)N(C(=O)OC(C)C)N1C(=O)OC(C)C", 90),
    ("CC[C@@]1(c2ccccc2)C(=O)N(C(=O)OC)N1C(=O)OC", 10),
]

(A) CC[C@@]1(c2cccc(C)c2)C(=O)N(C(=O)OCC(Cl)(Cl)Cl)N1C(=O)OCC(Cl)(Cl)Cl
(B) C=CCOC(=O)N1C(=O)[C@@](CC)(c2cccc(C)c2)N1C(=O)OCC=C
(C) CCC[C@@]1(c2cccc(C)c2)C(=O)N(C(=O)OC)N1C(=O)OC
Q: Thanks in advance: please rank these 3 entries by inhibition, highest to lowest. Output spec: labels arranged per the requested ranking.
A: B, A, C

* * *

tested on: Magl; test: competitive ABPP of Abhd10 versus anti-targets – biochemical, fluorescence, gel-based, mouse proteome, selectivity assay for PME-1 inhibitor project, late-stage follow-up (AID 588807); details: anti-target, at 10 µM, hits give high values
property name: inhibition (%)

Example compounds with recorded inhibition:
# compound, system, inhibition (%)
measured = [
    ("CC[C@]1(c2cccc(C)c2)C(=O)N(C(=O)OC)N1C(=O)OC", "Magl", 0),
    ("CC[C@@]1(c2cccc(Cl)c2)C(=O)N(C(=O)OC(C)C)N1C(=O)OC(C)C", "Magl", 45),
    ("C=CCOC(=O)N1C(=O)[C@@](CC)(c2ccccc2)N1C(=O)OCC=C", "Magl", 50),
    ("CCCOC(=O)N1C(=O)C(CC)(c2cccc(C)c2)N1C(=O)OCCC (stereo not given)", "Magl", 25),
    ("C=CCOC(=O)N1C(=O)[C@@](CC)(c2cccc(C)c2)N1C(=O)OCC=C", "Magl", 50),
]

(a) C=CCOC(=O)N1C(=O)[C@@](CC)(c2ccccc2)N1C(=O)OC
(b) CCOC(=O)N1C(=O)[C@@](CC)(c2cccc(C)c2)N1C(=O)OCC
(c) CC[C@@]1(c2ccccc2C)C(=O)N(C(=O)OC)N1C(=O)OC
(d) C=CCOC(=O)N1C(=O)[C@@](CC)(c2cccc(C)c2)N1C(=O)OC
Q: Rank the 4 compounds: largest inhibition first, smallest last. // respond by listing labels in the order requested
A: b, d, c, a
(b: 45%, d: 20%, c: 10%, a: 0%)

Just for reference, PubChem BioAssay AID588807 is where these values come from.
